Test system: K562
ASSAY SUMMARY: NCI tumour cell line growth inhibition, 48 h
Activity calls are given as the source filed them. Rule as the data show it: active = GI50 up to about 1.1 µM and inactive = higher.
MEASURED QUANTITY: GI50

Solved entries (count: 3):
C=CCn1c(=O)ccn(/C(=C/C(=O)OCC)C(=O)OCC)c1=O | 3.08 µM (inactive)
COc1ccc2nc3cc([N+](=O)[O-])ccc3c(Nc3ccc(S(=O)(=O)Nc4ncccn4)cc3)c2c1 | 35.4 µM (inactive)
O=C1Nc2ccccc2C(=O)/C1=C/NC(=S)NC1CCCCC1 | > 100 µM (inactive)

Which value of GI50 has been reported for c1ccc(-c2csc3c2-n2cccc2C3N2CCCC2)cc1 (stereo not given) in the records?
22.6 µM (inactive)

Which value of GI50 has been reported for CCN(CC)C1Oc2cc3c(cc2C(c2ccc(OC)cc2)C1C)OCO3 (stereo not given) in the records?
19.1 µM (inactive)

Which value of GI50 has been reported for `CCOC(=O)C(C(=O)OCC)c1ccc([N+](=O)[O-])o1` in the records?
3.43 µM (inactive)

Which value of GI50 has been reported for CN1C(=O)C2(C)SC1(c1ccccc1)C1C(=O)N(c3ccccc3)C(=O)C12 (stereo not given) in the records?
57.4 µM (inactive)

Which value of GI50 has been reported for `Cc1ccc(-c2nc(N/N=C/c3ccc(O)cc3)c3ccccc3n2)cc1` in the records?
22.8 µM (inactive)

Which value of GI50 has been reported for `O=c1c2cc([N+](=O)[O-])ccc2nc2n1CCCCC2` in the records?
> 100 µM (inactive)

Which value of GI50 has been reported for Cc1c(Cl)cccc1NC(=O)C(=O)C(C(=O)c1ccccc1-c1ccccc1)C1OC(=O)c2ccccc21 (stereo not given) in the records?
27.9 µM (inactive)

====

System: A549
ASSAY SUMMARY: NCI tumour cell line growth inhibition, 48 h
Calls of active or inactive are those of the source. Cut-off read from the data, not from the text of the source: active = GI50 up to about 1.1 µM and inactive = higher.
MEASURED QUANTITY: GI50

Solved entries (count: 5):
CN1CCC(O)C(CNC23CC4CC(CC(C4)C2)C3)C1 (stereo unspecified) | > 100 µM (inactive)
CC1CCC[P+](Cc2ccccc2)(c2ccccc2)CC1 (stereo unspecified) | > 100 µM (inactive)
c1ccc(C2N=C(c3ccccn3)C(c3ccccn3)=NC2c2ccccc2)cc1 (stereo unspecified) | > 100 µM (inactive)
CCC1C2C=CC(CC2)N1S(=O)(=O)c1ccc(C)cc1 (stereo unspecified) | 28.2 µM (inactive)
COc1c(Br)cc2ccccc2c1-c1c(OC)c(Br)cc2ccccc12 | > 100 µM (inactive)

Kindly consider the entry below.
Request body: readout GI50, system A549, query `CCOC(=O)c1c(N2CCCC2)[nH]c(=O)c(C(c2c(O)c(C(=O)OCC)c(N3CCCC3)[nH]c2=O)C(C)C)c1O` . Return the value.
> 100 µM (inactive)

====

System: SK-MEL-5
ASSAY SUMMARY: NCI tumour cell line growth inhibition, 48 h
Activity calls are given as the source filed them. Cut-off read from the data, not from the text of the source: active = GI50 up to about 1.1 µM and inactive = higher.
Thanks in advance; please answer with one of these: Yes (active), No (inactive)

Would you mind telling me which call this test gave `O=C1CC[C@@]2(O)[C@H]3Cc4ccc(-c5cccc(O)c5)c5c4[C@@]2(CCN3CC2CC2)[C@H]1O5` ?
No

Would you mind telling me which call this test gave `Cc1nc2c(O)nc3ccccc3c2o1` ?
No

Would you mind telling me which call this test gave `N#Cc1c(C#N)c(-c2ccco2)n(/N=C/c2ccco2)c1N` ?
No

Would you mind telling me which call this test gave `CC(=O)OC(C)(C)[C@H]1O[C@]23O[C@]1(C)C[C@@H](C)[C@@H]2[C@@]1(C)CC[C@@]24C[C@@]25CC[C@H](O[C@@H]2OC[C@@H](O)[C@H](O)[C@H]2O)C(C)(C)[C@@H]5CC[C@H]4[C@]1(C)[C@H]3O` ?
No

Would you mind telling me which call this test gave `CO/C(=N\N=C\c1ccc(Cl)cc1)c1ccncc1` ?
No

Would you mind telling me which call this test gave `C/C(=N/NC(=S)Nc1ccccc1Cl)c1ccccn1` ?
Yes

Would you mind telling me which call this test gave COc1cc2c(cc1OC)C1=C(C=O)c3ccc(OC)c(OC)c3C(O)N1CC2 (stereo not drawn) ?
No

Would you mind telling me which call this test gave CN1CCN(CN2C(=O)C3C4C=CC(C3C2=O)C2C3C(=O)N(CN5CCN(C)CC5)C(=O)C3C42)CC1 (stereo not drawn) ?
No

====

Measured GI50 by item
Tested on: EKVX
ASSAY SUMMARY: NCI tumour cell line growth inhibition, 48 h
The source made the active and inactive calls. Rule as the data show it: active = GI50 up to about 1.1 µM and inactive = higher.

Solved entries (count: 5):
NNC(=O)N/N=C1\C(=O)N(c2nccs2)C(=O)C(=O)C1c1nc2ccccc2s1 (stereo unspecified) | > 100 µM (inactive)
BrC(Br)=C1C(=C(Br)Br)C(Br)C1Br (stereo unspecified) | 2.08 µM (inactive)
CCN(CC)/[N+]([O-])=N/OCC(C)O (stereo unspecified) | > 100 µM (inactive)
CCCSc1ccc2[nH]c(N3C(=O)/C(=C/c4ccc(SC)cc4)N=C3c3ccccc3)cc2c1 | 18.2 µM (inactive)
O=C1c2ccccc2-c2cccc3ccc(Cc4ccc5ccccc5c4)c1c23 | > 100 µM (inactive)

Which value of GI50 has been reported for C=C(C)C(=O)OC1CC2=CC(CC3(C)OC3C3OC(=O)C(=C)C13)OC2=O (stereo unspecified) in the records?
15 µM (inactive)

Which value of GI50 has been reported for `O=[N+]([O-])c1cc(C(F)(F)F)cc2c1SC1=Nc3ccccc3CN12` in the records?
> 100 µM (inactive)

Which value of GI50 has been reported for CC(=O)OCc1nnn2c1C(OC(C)=O)CC2 (stereo unspecified) in the records?
> 100 µM (inactive)

Which value of GI50 has been reported for `CN1C=C(C(N)=O)Cc2ccsc21` in the records?
> 100 µM (inactive)

Which value of GI50 has been reported for `Cc1cc(S(=O)(=O)/N=C(\NN)Nc2ccc(Cl)cc2)c(S)cc1Cl` in the records?
5.16 µM (inactive)

Which value of GI50 has been reported for COC(=O)C1CCC(=O)N1C(c1ccc(OC)cc1)c1ccc2c(c1)OCO2 (stereo unspecified) in the records?
> 100 µM (inactive)

====

Measured GI50 by item
Test system: CCRF-CEM
ASSAY SUMMARY: NCI tumour cell line growth inhibition, 48 h
Activity calls are given as the source filed them. No stated cut-off is given here; in the data, active = GI50 up to about 1.1 µM and inactive = higher.

Solved entries (count: 5):
Cc1ccc(N2CCC3(CC2)OCCO3)cc1 | > 100 µM (inactive)
CCN1c2nc3ccccc3nc2N(CC)c2nc3ccccc3nc21 | 48.3 µM (inactive)
CN(C)c1ccc(C=C2C(=O)OC(C)(C)OC2=O)cc1Br | > 100 µM (inactive)
Cc1ccc(NC(=O)C(=O)Cc2cc[n+]([O-])cc2)cc1 | > 100 µM (inactive)
Cc1ccc(/C=C/C(=O)C(C)(C)CN2CCCCC2)cc1 | 3.11 µM (inactive)

Kindly consider the entry below.
Which value of GI50 has been reported for `COc1c(OC/C=C(\C)CCC=C(C)C)ccc2ccc(=O)oc12` in the records?
> 100 µM (inactive)

====

System: MDA-MB-231
ASSAY SUMMARY: NCI tumour cell line growth inhibition, 48 h
Activity calls are given as the source filed them. No stated cut-off is given here; in the data, active = GI50 up to about 1.1 µM and inactive = higher.
Measured GI50 by item

Solved entries (count: 6):
C=CCOc1ccc(C2c3c(n[nH]c3O)CC(C)(O)C2C(=O)OC)cc1OC (stereo not given) | > 100 µM (inactive)
CCOC(=O)Nn1c(CC#N)nnc1Cc1ccccc1 | > 100 µM (inactive)
COc1c(OC/C=C(\C)CCC=C(C)C)ccc2ccc(=O)oc12 | > 100 µM (inactive)
CC1=C(C)CC2C(=O)N(c3cc(C(C)(C)C)ccc3C(C)(C)C)C(=O)C2C1 (stereo not given) | > 100 µM (inactive)
Cc1ccc(-c2cc(=O)c(=O)[nH][nH]2)cc1 | > 100 µM (inactive)
C#CCOC(=O)C(N)CCCNC(=N)N (stereo not given) | > 100 µM (inactive)

Which value of GI50 has been reported for `CC1(C)CC(=O)c2[nH]c3ccccc3c2CC(=O)NCCc2cn1cn2` in the records?
88.1 µM (inactive)

====

Test system: BT-549
ASSAY SUMMARY: NCI tumour cell line growth inhibition, 48 h
Active and inactive are the calls of the source. Rule as the data show it: active = GI50 up to about 1.1 µM and inactive = higher.
MEASURED QUANTITY: GI50

O=C(O[C@H]1CCN2C[C@H]3C[C@H](CN4C(=O)CCC[C@H]34)[C@@H]2C1)c1ccc(O)cc1 | > 100 µM (inactive)
COC(=O)C(CCCCNC(=O)CNC(=O)OCc1ccccc1)NC(=O)C(CCCCNC(=O)CNC(=O)OCc1ccccc1)NC(=O)OCc1ccccc1 (stereo not drawn) | 20.7 µM (inactive)
O=C(COc1ccc(OCC(=O)NNC2=NC(c3cc(F)c(Cl)cc3Cl)CS2)c(Cl)c1)NNC1=NC(c2cc(F)c(Cl)cc2Cl)CS1 (stereo not drawn) | 24.1 µM (inactive)
Oc1cc(O)c2ccc(-c3ccc(O)c(O)c3)[o+]c2c1 | 39.9 µM (inactive)
CCOC(=O)c1cc(-c2ccc(OC)c(OC)c2)cn1C | > 10 µM (inactive)

Which value of GI50 has been reported for `C/C(=N\n1c(Cc2ccccc2)n[nH]c1=O)c1ccc([N+](=O)[O-])cc1` in the records?
> 100 µM (inactive)

Which value of GI50 has been reported for COC1(OC)C2(Cl)C(Cl)=C(Cl)C1(Cl)C1COCC12 (stereo not drawn) in the records?
> 100 µM (inactive)

Which value of GI50 has been reported for `N#Cc1nc(C#N)n(S(=O)(=O)c2ccccc2)c1NS(=O)(=O)c1ccccc1` in the records?
> 100 µM (inactive)

Which value of GI50 has been reported for `O=C1CC[C@@]2(O)[C@H]3Cc4ccc(-c5cccc(O)c5)c5c4[C@@]2(CCN3CC2CC2)[C@H]1O5` in the records?
21.6 µM (inactive)

Which value of GI50 has been reported for COc1cc2c(cc1OC)C1=C(C=O)c3ccc(OC)c(OC)c3C(O)N1CC2 (stereo not drawn) in the records?
22.2 µM (inactive)

Which value of GI50 has been reported for `Cc1cc(Cl)ccc1Nc1sc(C(=O)c2cc3cc(Cl)ccc3o2)c(N)c1C#N` in the records?
> 51.9 µM (inactive)

Which value of GI50 has been reported for `Cc1nc(N)sc1C(=O)Nc1nc[nH]n1` in the records?
> 100 µM (inactive)

Which value of GI50 has been reported for `CC(C)(C)OC(=O)NCCC(=O)NC1(c2cc3ccccc3s2)CCCCC1` in the records?
16.9 µM (inactive)

Which value of GI50 has been reported for `O=C(Nc1cccc(F)c1)c1cc2ccc(O)cc2o/c1=N\c1cccc(F)c1` in the records?
4.82 µM (inactive)
